Recorded Reactivity (OD 492 nm) values for a group of binders are listed next.
# system_under_test: T1, HCV bt-151-171 (Peptide 3, HCVc 151-171) (Hepatitis C virus (numbering per HCV-1), biotin (carboxy-terminal per; N-terminal per))
# T1 peptide: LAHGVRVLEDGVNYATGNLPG
# test_description: EIA, captured mAb + biotin peptide
Form field: result (number plus unit)

A selection of reference data follows.
# binder, property_label, result
rows = [
    ("HCV 208B-911 (antibody, V domains shown) VH: QVHLQQPGAELVRPGVSVKLSCKASGYTFTTYSINWMKQRPGQGLEWIGNIYPSTSHTNYNQKFRDKATMTVDKSSSTAYMQLSSPTSEDSAVYYCTINAYSMDYWGQGTSVTVSS VL: QIVLTQSPEIMSASPGEKVTITCSASSSVSFMYWFQQKPGTSPKLWIYITSNLASGVPTRFSGSGSGTSYSLTISRMEAEDAATYYCQQRSSFPYTFGGGTKLEMKR", "Reactivity (OD 492 nm)", "0.71 OD units"),
    ("HCV 208A-134 (antibody, V domains shown) VH: QGQMQQSGAELAKPGASVKLSCKTSGFTFSSSYISWLKQKPGQSLEWIAWIYAGTGNTNYNQKFTDKAQLTVDTSSSTAYMQLSSLTTEDSAIYYCAISGTGFTYWGQGTLVTVSA VL: EVLMTQSPLSLPVSLGDQASISCRSSQSLEHTNGNTYLEWFLQRPGQPPKLLIYKVSSRFSGVPDRFSGSGSGTDFTLKISRVEAEDLGVYYCFQGSHVPFTFGSGTKLAIKR", "Reactivity (OD 492 nm)", "0.06 OD units"),
]

Lookup: Identify measured Reactivity (OD 492 nm) associated with HCV 208A-741 (antibody, V domains shown) VH: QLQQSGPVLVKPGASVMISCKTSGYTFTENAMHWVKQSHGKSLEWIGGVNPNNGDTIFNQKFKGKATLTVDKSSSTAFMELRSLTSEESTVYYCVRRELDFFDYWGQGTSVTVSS VL: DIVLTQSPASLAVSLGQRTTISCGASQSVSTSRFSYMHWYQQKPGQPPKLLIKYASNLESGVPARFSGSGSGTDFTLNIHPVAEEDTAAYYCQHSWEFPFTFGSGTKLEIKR
Found: 0.06 OD units

Lookup: State its Reactivity (OD 492 nm) for this binder: HCV 208A-222 (antibody, V domains shown) VH: EVQLQQSGPELEKPGASVRISCKTSGYTFTEYAMHWVKQSHGKSLEWIGGINPNNGNAIYNQIFKDKATLTVDRSSSTAYMGLRSLTFGDSGVYFCVRRQLDYFDYWGQGASLTVSS VL: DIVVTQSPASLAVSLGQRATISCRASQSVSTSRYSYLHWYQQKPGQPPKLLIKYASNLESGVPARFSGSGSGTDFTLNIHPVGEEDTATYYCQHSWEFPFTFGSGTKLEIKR
Found: 0.08 OD units

Lookup: Please report the measured Reactivity (OD 492 nm) for HCV 208B-471 (antibody, V domains shown) VH: QGQLQQSGPVLVKPGASEILYCKTSGFTFSSTYISWLKQKPGQSLEWIAWIYAGTGATNYNQKFTGKAQLTVDASSNTAYMHFSGLTPEDSAIYYCAISGAGVYWGQGTLVTVSA VL: DVVMTQTPLSLPVSLGDQASISCRSSQSLLHSNGNTYLEWYLQKPGQSPNLLIYNVSNRFSGVPDRFSGSGSGTDFALKISRVGAEDLGVYYCFQGSHVPLTFGAGTKLELKR
Found: 0.08 OD units
